Test system: NRF2
Experiment: ARE-luciferase NRF2 activation assay
Type: cell-based
Conditions: ARE-luciferase relative to vehicle control, MDA-MB-231
Here the recorded Max. induction (fold) is given for each entry.
Experimental Endpoint: Max. induction (fold)

- Molecule: "C[S+]([O-])CCCCN=C=S (stereo not drawn) [SFN, sulforaphane, reference compound]"
  Experimental Endpoint: "Max. induction (fold)"
  Result Value: 1.9
- Molecule: "C[C@]12[C@@H]3CC[C@@H]4C[C@]3(C(=O)[C@@H]4CO)[C@@H](O)C[C@@H]1[C@](C)(C(=O)O)CC[C@@H]2O [Compound 5, geopyxin F]"
  Experimental Endpoint: "Max. induction (fold)"
  Result Value: 3.0
- Molecule: "C=C1C(=O)[C@]23C[C@H]1CC[C@H]2[C@]1(C)[C@@H](O)CC[C@@](C)(C(=O)O)[C@H]1C[C@@H]3O [Compound 1, geopyxin A]"
  Experimental Endpoint: "Max. induction (fold)"
  Result Value: 2.1
- Molecule: "C=C1C(=O)[C@]23C[C@H]1CC[C@H]2[C@]1(C)[C@@H](O)CC[C@@](C)(C(=O)OC)[C@H]1C[C@@H]3O [Compound 6, methylgeopyxin A]"
  Experimental Endpoint: "Max. induction (fold)"
  Result Value: 2.2
- Molecule: "CC(C)(C)c1cc(O)ccc1O [tBHQ, tert-butylhydroquinone, reference compound]"
  Experimental Endpoint: "Max. induction (fold)"
  Result Value: 2.2
- Molecule: "C=C1C(=O)[C@]23C[C@H]1CC[C@H]2[C@]1(C)C(=O)CC[C@@](C)(C(=O)O)[C@H]1C[C@@H]3O [Compound 3, geopyxin C]"
  Experimental Endpoint: "Max. induction (fold)"
  Result Value: 2.1

====

Test system: MDA-MB-231 cells
Settings: MDA-MB-231 ARE-luciferase cell line, 48 h, MTT
Here the recorded LD50 [48 h] is given for each entry.
Experimental Endpoint: LD50 [48 h] (µM)

- Molecule: "CC(C)(C)c1cc(O)ccc1O [tBHQ, tert-butylhydroquinone, reference compound]"
  Target System: "MDA-MB-231 cells"
  Experimental Endpoint: "LD50 [48 h]"
  Result Value: 85.1
- Molecule: "C=C1C(=O)[C@]23C[C@H]1CC[C@H]2[C@]1(C)[C@@H](O)CC[C@@](C)(C(=O)O)[C@H]1C[C@@H]3O"
  Target System: "MDA-MB-231 cells"
  Experimental Endpoint: "LD50 [48 h]"
  Result Value: 60.36
- Molecule: "C=C1C(=O)[C@]23C[C@H]1CC[C@H]2[C@]1(C)C(=O)CC[C@@](C)(C(=O)O)[C@H]1C[C@@H]3O"
  Target System: "MDA-MB-231 cells"
  Experimental Endpoint: "LD50 [48 h]"
  Result Value: 51.29
- Molecule: "C=C1C(=O)[C@]23C[C@H]1CC[C@H]2[C@]1(C)[C@@H](O)CC[C@@](C)(C(=O)OC)[C@H]1C[C@@H]3O"
  Target System: "MDA-MB-231 cells"
  Experimental Endpoint: "LD50 [48 h]"
  Result Value: 8.69

====

Biological target: NRF2
Assay: ARE-luciferase NRF2 activation assay
Type: cell-based
Conditions: induction of ARE-luciferase, MDA-MB-231, 16 hours
Here the recorded EC50 is given for each entry.

- Smiles Str: "C[C@]12[C@@H]3CC[C@@H]4C[C@]3(C(=O)[C@@H]4CO)[C@@H](O)C[C@@H]1[C@](C)(C(=O)O)CC[C@@H]2O"
  Target System: "NRF2"
  EC50 (µM): 71.5
- Smiles Str: "C=C1C(=O)[C@]23C[C@H]1CC[C@H]2[C@]1(C)C(=O)CC[C@@](C)(C(=O)O)[C@H]1C[C@@H]3O"
  Target System: "NRF2"
  EC50 (µM): 2.33
